These measurements were taken from paper PMC7824897.

Assay: in vivo
Settings: female, athymic nude-Foxn1nu/Foxn1+, mouse, 20 pmol, total radioactivity, Biodistribution Blood
Where a SMILES comes first, the peptide text is derived from it. Bridges are numbered along the chain shown (N, C = ends). [ ]: non-standard residue; d: D form. The star is where a group is joined. dPhe(4-NHCONH2) = NC(=O)Nc1ccc(C[C@@H](N)C(=O)O)cc1; Phe(4-Cl) = N[C@@H](Cc1ccc(Cl)cc1)C(=O)O; X1 = NCCNCC(CNCCN)C(=O)*
quantity_measured: tissue uptake at 4 h (%ID/g)
Output spec: scalar in %ID/g, unitless text.

State the recorded tissue uptake at 4 h for this entry: C[C@@H](O)[C@@H]1NC(=O)[C@H](CCCCN)NC(=O)[C@@H](Cc2c[nH]c3ccccc23)NC(=O)[C@H](Cc2ccc(O)cc2)NC(=O)[C@H](NC(=O)[C@H](Cc2ccc(Cl)cc2)NC(=O)C(CNCCN)CNCCN)CSSC[C@@H](C(=O)N[C@H](Cc2ccc(O)cc2)C(N)=O)NC1=O [[^99mTc]Tc-TECANT-2, metal not drawn]
0.23

For the molecule shown here, C[C@@H](O)[C@@H]1NC(=O)[C@H](CCCCN)NC(=O)[C@@H](Cc2ccc(NC(N)=O)cc2)NC(=O)[C@H](Cc2ccc(O)cc2)NC(=O)[C@H](NC(=O)[C@H](Cc2ccc(Cl)cc2)NC(=O)C(CNCCN)CNCCN)CSSC[C@@H](C(=O)N[C@H](Cc2ccc(O)cc2)C(N)=O)NC1=O [[^99mTc]Tc-TECANT-1, metal not drawn] (X1-[Phe(4-Cl)][dC]Y[dPhe(4-NHCONH2)]KTC[dY]-NH2; disulfide 2-7) , give the reported tissue uptake at 4 h.
0.23
